Biological target: IDO1 expressed in MCF-7 cells (Homo sapiens)
Construct: endogenous in cells; host or cells: MCF-7 (IFN-γ induced)
Test: IDO1 inhibitory assay in cell lines (kynurenine, IFN-γ induced), MCF-7
Assay type: cell-based
Details: MCF7; 100 μM inhibitor concentration
value_kind: inhibition at 100 µM (%)

>>> df
                                   compound            value_kind  endpoint_result
0  COC(=O)[C@H]1N[C@@H](c2ccccc2)[C@@]2(C(=O)Nc3cc(C)ccc32)[C@@H]1c1ccccc1 [inhibitor 2]  inhibition at 100 µM             22.4
1  COC(=O)[C@@H]1N[C@H](c2ccc(Br)cc2)[C@]2(C(=O)Nc3ccccc32)[C@H]1c1ccccc1 [inhibitor 4]  inhibition at 100 µM             20.7
2  COC(=O)[C@H]1N[C@@H](c2ccccc2)[C@@]2(C(=O)Nc3cc(OC)ccc32)[C@@H]1c1ccccc1 [inhibitor 3]  inhibition at 100 µM             27.8
3  COC(=O)[C@H]1N[C@@H](c2ccccc2)[C@@]2(C(=O)Nc3ccccc32)[C@@H]1c1ccccc1 [inhibitor 1]  inhibition at 100 µM             23.7

---

Molecular target: IDO1 expressed in 4T1 cells (Mus musculus, UniProt P28776)
Construct: endogenous in cells; host or cells: 4T1 (IFN-γ induced)
Sequence (P28776 whole entry): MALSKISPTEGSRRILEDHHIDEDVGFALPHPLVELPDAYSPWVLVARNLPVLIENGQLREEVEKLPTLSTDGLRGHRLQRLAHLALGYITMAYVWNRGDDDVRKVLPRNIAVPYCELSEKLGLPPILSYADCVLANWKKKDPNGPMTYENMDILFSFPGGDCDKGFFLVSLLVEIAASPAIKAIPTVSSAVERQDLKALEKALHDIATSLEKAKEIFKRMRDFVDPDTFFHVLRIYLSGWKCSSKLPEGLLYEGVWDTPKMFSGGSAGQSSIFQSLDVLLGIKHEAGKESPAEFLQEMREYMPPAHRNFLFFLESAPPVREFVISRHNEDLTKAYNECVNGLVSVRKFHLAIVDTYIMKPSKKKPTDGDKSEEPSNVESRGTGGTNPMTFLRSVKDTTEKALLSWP
Assay: IDO1 inhibitory assay in cell lines (kynurenine, IFN-γ induced), 4T1
Format: cell-based
Details: 100 μM inhibitor concentration
value_kind: inhibition at 100 µM (%)

>>> print(df.to_string())
                               smiles_input            value_kind  endpoint_result
0  COC(=O)[C@H]1N[C@@H](c2ccccc2)[C@@]2(C(=O)Nc3cc(C)ccc32)[C@@H]1c1ccccc1  inhibition at 100 µM              4.2
1  COC(=O)[C@H]1N[C@@H](c2ccccc2)[C@@]2(C(=O)Nc3ccccc32)[C@@H]1c1ccccc1  inhibition at 100 µM              2.6

A. COC(=O)[C@@H]1N[C@H](c2ccc(Br)cc2)[C@]2(C(=O)Nc3ccccc32)[C@H]1c1ccccc1
B. COC(=O)[C@H]1N[C@@H](c2ccccc2)[C@@]2(C(=O)Nc3cc(OC)ccc32)[C@@H]1c1ccccc1
Q. Could you kindly indicate whether A or B has the higher inhibition at 100 µM value? Identify your pick by its label.
A. B
(B: 4.3%, A: 2.8%)

---

Molecular target: IDO1 expressed in HeLa cells (Homo sapiens)
Sequence (P14902 whole entry): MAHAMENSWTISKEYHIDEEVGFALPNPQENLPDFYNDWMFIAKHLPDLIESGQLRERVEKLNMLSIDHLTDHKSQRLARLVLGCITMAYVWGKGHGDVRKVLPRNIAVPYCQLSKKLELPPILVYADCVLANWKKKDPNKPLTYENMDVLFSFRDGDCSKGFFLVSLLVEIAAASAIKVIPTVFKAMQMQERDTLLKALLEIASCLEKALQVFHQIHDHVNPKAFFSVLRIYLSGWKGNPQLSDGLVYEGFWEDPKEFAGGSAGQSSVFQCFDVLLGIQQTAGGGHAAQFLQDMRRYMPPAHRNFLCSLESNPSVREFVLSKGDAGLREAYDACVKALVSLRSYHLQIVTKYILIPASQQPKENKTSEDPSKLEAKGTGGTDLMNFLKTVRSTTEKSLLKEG
Assay: IDO1 inhibitory assay in cell lines (kynurenine, IFN-γ induced), HeLa
Format: cell-based
Details: 100 μM inhibitor concentration
value_kind: inhibition at 100 µM (%)

In [3]: df
Out[3]:
                                   compound  unit_of_measure  endpoint_result
0  COC(=O)[C@H]1N[C@@H](c2ccccc2)[C@@]2(C(=O)Nc3ccccc32)[C@@H]1c1ccccc1 [inhibitor 1]                %             25.5
1  COC(=O)[C@H]1N[C@@H](c2ccccc2)[C@@]2(C(=O)Nc3cc(C)ccc32)[C@@H]1c1ccccc1 [inhibitor 2]                %             27.1
2  COC(=O)[C@H]1N[C@@H](c2ccccc2)[C@@]2(C(=O)Nc3cc(OC)ccc32)[C@@H]1c1ccccc1 [inhibitor 3]                %             26.7
3  COC(=O)[C@@H]1N[C@H](c2ccc(Br)cc2)[C@]2(C(=O)Nc3ccccc32)[C@H]1c1ccccc1 [inhibitor 4]                %             25.6
